target: T1, IL-1β (UniProt P01584 117-269); test: Biacore, periplasmic extract
T1 construct: Antigen immobilised on the Biacore chip
Reported fold difference in affinity vs original values for a set of binders
Give the quantity in fold, number only.

// solved cases for fold difference in affinity vs original follow
INSERT INTO measurements (binder, numeric_result) VALUES
  ('XPA23 light chain A51D (Fab, V domains shown) VH: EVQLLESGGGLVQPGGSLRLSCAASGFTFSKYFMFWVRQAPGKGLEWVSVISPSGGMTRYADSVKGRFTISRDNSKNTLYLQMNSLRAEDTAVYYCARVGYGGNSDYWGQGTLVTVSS VL: DIQMTQSPSSVSASVGDRLTIICRASQDINRWLAWYQQTPGNAPKLLIHSDTSLQSGVPSRFSGSGSGTDFTLTINSLQPEDFATYYCQQADSFPLTFGGGTKVEIK', 0.13),
  ('XPA23 light chain D92K (Fab, V domains shown) VH: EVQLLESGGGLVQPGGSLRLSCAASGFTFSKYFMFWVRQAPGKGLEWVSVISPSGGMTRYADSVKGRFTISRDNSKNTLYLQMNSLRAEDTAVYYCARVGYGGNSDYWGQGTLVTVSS VL: DIQMTQSPSSVSASVGDRLTIICRASQDINRWLAWYQQTPGNAPKLLIHSATSLQSGVPSRFSGSGSGTDFTLTINSLQPEDFATYYCQQAKSFPLTFGGGTKVEIK', 0.23);

Need fold difference in affinity vs original of XPA23 light chain S93R (Fab, V domains shown) VH: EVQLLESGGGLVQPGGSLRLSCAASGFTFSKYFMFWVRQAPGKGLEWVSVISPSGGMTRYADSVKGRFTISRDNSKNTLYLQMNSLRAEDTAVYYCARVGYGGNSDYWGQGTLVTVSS VL: DIQMTQSPSSVSASVGDRLTIICRASQDINRWLAWYQQTPGNAPKLLIHSATSLQSGVPSRFSGSGSGTDFTLTINSLQPEDFATYYCQQADRFPLTFGGGTKVEIK , thanks. 0.91

Thanks! And XPA23 light chain N30S (Fab, V domains shown) VH: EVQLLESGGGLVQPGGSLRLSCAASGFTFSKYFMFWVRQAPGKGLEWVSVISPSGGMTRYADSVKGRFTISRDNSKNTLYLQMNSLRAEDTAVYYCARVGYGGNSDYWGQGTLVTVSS VL: DIQMTQSPSSVSASVGDRLTIICRASQDISRWLAWYQQTPGNAPKLLIHSATSLQSGVPSRFSGSGSGTDFTLTINSLQPEDFATYYCQQADSFPLTFGGGTKVEIK ? 0.72

Thanks! And XPA23 light chain D28V (Fab, V domains shown) VH: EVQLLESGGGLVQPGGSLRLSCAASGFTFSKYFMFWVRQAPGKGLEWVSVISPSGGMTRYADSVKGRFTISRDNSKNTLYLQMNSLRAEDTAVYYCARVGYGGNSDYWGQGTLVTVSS VL: DIQMTQSPSSVSASVGDRLTIICRASQVINRWLAWYQQTPGNAPKLLIHSATSLQSGVPSRFSGSGSGTDFTLTINSLQPEDFATYYCQQADSFPLTFGGGTKVEIK ? 0.85
